Provenance of the data: ChEMBL document CHEMBL5257019

Hi there, I'd appreciate the recorded pIC50 for every entry that follows.
Biological target: Replicase polyprotein 1ab (Severe acute respiratory syndrome coronavirus 2)
Test: Inhibition of SARS-CoV-2 3CL protease using 2-aminobenzoyl-SVTLQSG-Tyr(NO2)-R as substrate
Note on pIC50: it is the negative log10 of concentration, concentration in mol/L.

I would be grateful if you could share the reported pIC50 for "O=C(CSc1nc(C2CCCCC2)nc2ccccc12)NCc1ccco1" . 4.74

I would be grateful if you could share the reported pIC50 for "COC(=O)c1cc2c(O)cc(C(F)(F)F)cc2o1" . 5.37

I would be grateful if you could share the reported pIC50 for "Cc1cc2cc(CN(CCc3ccccc3C)C(=O)NCc3ccccc3)c(=O)[nH]c2cc1C" . 4.76

====

Molecular target: Cytochrome P450 2C9 (Homo sapiens, UniProt P11712)
Sequence (P11712 whole entry): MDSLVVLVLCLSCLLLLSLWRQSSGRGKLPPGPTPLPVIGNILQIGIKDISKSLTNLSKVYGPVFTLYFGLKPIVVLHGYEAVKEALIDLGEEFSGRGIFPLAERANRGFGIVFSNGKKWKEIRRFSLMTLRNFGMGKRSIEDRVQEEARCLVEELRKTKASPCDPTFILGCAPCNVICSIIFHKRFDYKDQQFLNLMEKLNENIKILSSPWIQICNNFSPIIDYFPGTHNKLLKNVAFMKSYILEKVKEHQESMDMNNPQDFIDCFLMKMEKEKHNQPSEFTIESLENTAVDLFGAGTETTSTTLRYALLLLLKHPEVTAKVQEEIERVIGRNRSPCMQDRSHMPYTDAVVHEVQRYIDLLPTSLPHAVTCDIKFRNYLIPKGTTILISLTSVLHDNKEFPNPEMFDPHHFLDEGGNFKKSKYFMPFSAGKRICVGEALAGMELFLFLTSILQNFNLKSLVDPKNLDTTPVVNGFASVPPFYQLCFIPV
Experiment: Inhibition of CYP2C9 (unknown origin)
Assay type: ADME
VALUE KIND: IC50 (µM)
Numbers only here, please. The scale is µM.

I would be grateful if you could share the reported IC50 for CC(C)(C)NC(=O)C(c1cccnc1)N(C(=O)c1ccco1)c1ccc(C(C)(C)C)cc1 (configuration not stated) . 9.1

I would be grateful if you could share the reported IC50 for "Cn1ccc(CN(C(=O)Cn2nnc3ccccc32)c2ccc(NC(=O)C3CC3)cc2)c1" . 7.2

====

Molecular target: Cytochrome P450 3A4 (Homo sapiens, UniProt P08684)
Sequence (P08684 whole entry): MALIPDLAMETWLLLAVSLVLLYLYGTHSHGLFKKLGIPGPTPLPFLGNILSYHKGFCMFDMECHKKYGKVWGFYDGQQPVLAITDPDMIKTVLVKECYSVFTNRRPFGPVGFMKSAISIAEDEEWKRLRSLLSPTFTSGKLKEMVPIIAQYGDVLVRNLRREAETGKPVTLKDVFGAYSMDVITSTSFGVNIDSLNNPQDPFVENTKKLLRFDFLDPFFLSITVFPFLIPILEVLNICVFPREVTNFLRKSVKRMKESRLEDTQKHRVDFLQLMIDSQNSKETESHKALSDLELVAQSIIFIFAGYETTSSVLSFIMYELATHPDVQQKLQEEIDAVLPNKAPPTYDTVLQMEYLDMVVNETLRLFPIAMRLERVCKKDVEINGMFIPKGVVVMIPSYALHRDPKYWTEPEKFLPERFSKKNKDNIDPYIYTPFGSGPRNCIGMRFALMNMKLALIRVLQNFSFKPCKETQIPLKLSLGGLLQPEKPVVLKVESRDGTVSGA
Experiment: Inhibition of CYP3A4 (unknown origin)
Type: ADME
VALUE KIND: pIC50
Note on pIC50: it is the negative log10 of concentration, concentration in mol/L.

I would be grateful if you could share the reported pIC50 for "Cn1ccc(CN(C(=O)Cn2nnc3ccccc32)c2ccc(NC(=O)C3CC3)cc2)c1" . 5.34

====

VALUE KIND: pIC50
Note on pIC50: it is the negative log10 of concentration, concentration in mol/L.

Provide the documented pIC50 with Cytochrome P450 2D6 (Homo sapiens) as the system for "Cn1ccc(CN(C(=O)Cn2nnc3ccccc32)c2ccc(NC(=O)C3CC3)cc2)c1" 5.08

====

Molecular target: Replicase polyprotein 1ab (Severe acute respiratory syndrome coronavirus 2, UniProt P0DTD1)
Test: Inhibition of SARS-CoV-2 3CL protease using Dabcyl-Leu-Ala-Gln-Ala-Val-Arg-Ser-Ser-Ser-Arg-Edans as substrate
VALUE KIND: pEC50
Note on pEC50: it is the negative log10 of concentration, concentration in mol/L.

I would be grateful if you could share the reported pEC50 for O=C(O)c1ccc(/N=C/c2c(O)ccc3c2C2CCCCC2O3)cc1 (stereo unspecified) . 4.64

====

Target: UniProt:P05177
Sequence (P05177 whole entry): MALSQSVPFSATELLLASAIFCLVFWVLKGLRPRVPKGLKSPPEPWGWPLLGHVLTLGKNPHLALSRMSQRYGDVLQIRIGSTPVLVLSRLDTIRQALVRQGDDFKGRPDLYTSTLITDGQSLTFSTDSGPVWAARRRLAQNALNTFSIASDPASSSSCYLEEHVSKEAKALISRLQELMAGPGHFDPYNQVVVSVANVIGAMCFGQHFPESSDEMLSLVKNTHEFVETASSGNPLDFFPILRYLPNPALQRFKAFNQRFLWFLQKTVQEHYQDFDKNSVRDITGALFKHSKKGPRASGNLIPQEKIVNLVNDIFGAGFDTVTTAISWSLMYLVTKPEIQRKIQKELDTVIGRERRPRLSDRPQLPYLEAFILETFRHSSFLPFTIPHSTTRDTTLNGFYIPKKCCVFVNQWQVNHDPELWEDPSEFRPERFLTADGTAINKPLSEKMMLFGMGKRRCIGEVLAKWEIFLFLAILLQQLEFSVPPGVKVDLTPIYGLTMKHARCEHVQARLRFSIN
Assay: Inhibition of CYP1A2 (unknown origin)
Assay type: ADME
VALUE KIND: IC50 (µM)
Numbers only here, please. The scale is µM.

I would be grateful if you could share the reported IC50 for "Cn1ccc(CN(C(=O)Cn2nnc3ccccc32)c2ccc(NC(=O)C3CC3)cc2)c1" . 7.7

====

Experiment: Plasma protein binding in rat assessed as unbound fraction
Assay type: ADME
VALUE KIND: fraction unbound
In your answer, state the number alone without any accompanying words.

I would be grateful if you could share the reported fraction unbound for CC(C)(C)NC(=O)C(c1cccnc1)N(C(=O)c1ccco1)c1ccc(C(C)(C)C)cc1 (configuration not stated) . 0.026

I would be grateful if you could share the reported fraction unbound for "Cn1ccc(CN(C(=O)Cn2nnc3ccccc32)c2ccc(NC(=O)C3CC3)cc2)c1" . 0.106

====

Target: Replicase polyprotein 1ab (Severe acute respiratory syndrome coronavirus 2)
VALUE KIND: Ki (nM)
Numbers only here, please. The scale is nM.

I would be grateful if you could share the reported Ki for "O=C(On1nnc2ccccc21)c1ccc2[nH]ccc2c1" . 7.5
